Collected log10 EC50 values appear next to each entry.
system: PC-12; assay: Cytotoxicity against rat PC12 cells assessed as cell viability after 48 hrs by neutral red assay; type: cell-based; details: PC-12, 48 h
ASSAY_ENDPOINT: log10 EC50 (log10 of the value in µM)

compound=CSc1ccc(CC(N)Cc2ccc(SC)cc2)cc1 assay_endpoint="log10 EC50" experimental_result=2.80
compound="CCC(Cc1ccc(SC)cc1)NC=O (stereo unspecified)" assay_endpoint="log10 EC50" experimental_result=2.87
compound=CCc1nc(Cc2ccc(SC)cc2)c(C)cc1-c1ccc(SC)cc1 assay_endpoint="log10 EC50" experimental_result=1.47
compound="CSc1ccc(CC(C)N)cc1 (stereo unspecified)" assay_endpoint="log10 EC50" experimental_result=2.47
compound=CSc1ccc(CC(Cc2ccc(SC)cc2)NC=O)cc1 assay_endpoint="log10 EC50" experimental_result=1.58
compound=CSc1ccc(C/C(C)=N/O)cc1 assay_endpoint="log10 EC50" experimental_result=2.89
compound=CSc1ccc(CC(Cc2ccc(SC)cc2)NC(C)=O)cc1 assay_endpoint="log10 EC50" experimental_result=3.62
compound=CSc1ccc(Cc2ccncn2)cc1 assay_endpoint="log10 EC50" experimental_result=1.83
compound=CCNC(Cc1ccc(SC)cc1)Cc1ccc(SC)cc1 assay_endpoint="log10 EC50" experimental_result=2.36
compound="CSc1ccc(CC(C)NC(C)Cc2ccc(SC)cc2)cc1 (stereo unspecified)" assay_endpoint="log10 EC50" experimental_result=1.44

---

Reported values of log10(EC50) for individual entries
tested on: SH-SY5Y; experiment: Cytotoxicity against human SH-SY5Y cells assessed as cell viability after 48 hrs by neutral red assay; assay type: cell-based
ASSAY_ENDPOINT: log10(EC50) (log10 of the value in µM)

compound=CSc1ccc(CC(Cc2ccc(SC)cc2)NC=O)cc1 assay_endpoint=log10(EC50) experimental_result=1.51
compound=CSc1ccc(CC(Cc2ccc(SC)cc2)NC(C)=O)cc1 assay_endpoint=log10(EC50) experimental_result=2.78
compound="CSc1ccc(CC(C)N)cc1 (stereo unspecified) [4-METHYLTHIOAMPHETAMINE]" assay_endpoint=log10(EC50) experimental_result=2.71
compound=CSc1ccc(C/C(C)=N/O)cc1 assay_endpoint=log10(EC50) experimental_result=2.53
compound=CCNC(Cc1ccc(SC)cc1)Cc1ccc(SC)cc1 assay_endpoint=log10(EC50) experimental_result=1.14
compound=CSc1ccc(Cc2ccncn2)cc1 assay_endpoint=log10(EC50) experimental_result=3.47
compound=CSc1ccc(CC(N)Cc2ccc(SC)cc2)cc1 assay_endpoint=log10(EC50) experimental_result=1.27
compound=CCc1nc(Cc2ccc(SC)cc2)c(C)cc1-c1ccc(SC)cc1 assay_endpoint=log10(EC50) experimental_result=2.25
compound="CSc1ccc(CC(C)NC(C)Cc2ccc(SC)cc2)cc1 (stereo unspecified)" assay_endpoint=log10(EC50) experimental_result=1.35

---

tested on: HEK293; assay: Cytotoxicity against human HEK293 cells over expressing human SERT assessed as cell viability after 48 hrs by neutral red assay; format: cell-based; settings: HEK293, 48 h
Measured EC50 accompanies every entry in the list below.
ASSAY_ENDPOINT: EC50 (µM)

compound=CSc1ccc(C/C(C)=N/O)cc1 experimental_result=214
compound=CCc1nc(Cc2ccc(SC)cc2)c(C)cc1-c1ccc(SC)cc1 experimental_result=34.7
compound=CSc1ccc(CC(Cc2ccc(SC)cc2)NC=O)cc1 experimental_result=50.1
compound="CSc1ccc(CC(C)N)cc1 (configuration not stated)" experimental_result=22.4
compound="CSc1ccc(CC(C)NC(C)Cc2ccc(SC)cc2)cc1 (configuration not stated)" experimental_result=25.7
compound="CC(N)Cc1ccc2c(c1)OCO2 (configuration not stated)" experimental_result=692
compound=CSc1ccc(CC(N)Cc2ccc(SC)cc2)cc1 experimental_result=24.5

Where do these numbers come from? They come from ChEMBL document CHEMBL1165934.
